# study.system: S1P1 (Homo sapiens)
# Construct: host or cells: HUVEC (pooled donors)
# experiment.summary: Label-free impedance assay in HUVEC, first stimulation (early and late BNCI response)
# Assay type: cell-based
# settings: BNCI at 60 min, arithmetic mean, determined manually for bell-shaped responses
measured.property: Late phase Max
Give bare numbers.

Here is how some molecules turned out for Late phase Max.
- CC(C)Oc1ccc(-c2nc(-c3cccc4c3CC[C@@H]4NCCO)no2)cc1C#N [Ozanimod, ozanimod]: 0.234
- Cc1cc(-c2nc3cnc(Oc4cccc(Cl)c4)nc3o2)cc(C)c1OCC(=O)O [SAR247799]: 0.425
- CCc1cc(/C(C)=N/OCc2ccc(C3CCCCC3)c(C(F)(F)F)c2)ccc1CN1CC(C(=O)O)C1 [Siponimod, siponimod]: 0.150

// switching to the query molecule
stdin: Give the measured Late phase Max of CCC/N=C1\S/C(=C\c2ccc(OC[C@H](O)CO)c(Cl)c2)C(=O)N1c1ccccc1C [Ponesimod, ponesimod] .
stdout: 0.468

----------
# study.system: S1P1 (Homo sapiens, UniProt P21453)
# Construct: host or cells: HUVEC (pooled donors)
# Sequence (P21453 whole entry): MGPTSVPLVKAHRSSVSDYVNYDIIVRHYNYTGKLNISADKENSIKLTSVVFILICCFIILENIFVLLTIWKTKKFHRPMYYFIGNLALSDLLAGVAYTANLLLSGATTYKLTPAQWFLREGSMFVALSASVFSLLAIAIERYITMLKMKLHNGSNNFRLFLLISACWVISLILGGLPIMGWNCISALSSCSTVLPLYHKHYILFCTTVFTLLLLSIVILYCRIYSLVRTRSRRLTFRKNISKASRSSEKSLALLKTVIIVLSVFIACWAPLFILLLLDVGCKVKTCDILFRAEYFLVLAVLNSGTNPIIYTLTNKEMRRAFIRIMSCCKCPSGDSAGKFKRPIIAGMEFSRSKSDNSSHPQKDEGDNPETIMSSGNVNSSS
# experiment.summary: Label-free impedance assay in HUVEC, first stimulation (early and late BNCI response)
# Type: cell-based
# settings: BNCI at 60 min, first stimulation, geometric mean, read-out: Late phase EC50 [95% CI]
measured.property: pEC50
One number for each entry, as −log10 of the molar value.

stdin: Give the measured pEC50 of Cc1cc(-c2nc3cnc(Oc4cccc(Cl)c4)nc3o2)cc(C)c1OCC(=O)O .
stdout: 7.37

----------
Exercise: state measured Early phase Hill slope for each of the molecules provided.
# study.system: S1P1 (Homo sapiens, UniProt P21453)
# Construct: host or cells: HUVEC (pooled donors)
# experiment.summary: Label-free impedance assay in HUVEC, first stimulation (early and late BNCI response)
# Assay type: cell-based
# settings: early response, arithmetic mean
One number for each entry.

Here is how some molecules turned out for Early phase Hill slope.
- CCc1cc(/C(C)=N/OCc2ccc(C3CCCCC3)c(C(F)(F)F)c2)ccc1CN1CC(C(=O)O)C1: 0.7
- CCC/N=C1\S/C(=C\c2ccc(OC[C@H](O)CO)c(Cl)c2)C(=O)N1c1ccccc1C: 1.2
- CC(C)Oc1ccc(-c2nc(-c3cccc4c3CC[C@@H]4NCCO)no2)cc1C#N: 1.1

// switching to the query molecule
stdin: Give the measured Early phase Hill slope of Cc1cc(-c2nc3cnc(Oc4cccc(Cl)c4)nc3o2)cc(C)c1OCC(=O)O .
stdout: 1.0

----------
Exercise: state measured EC50 for each of the molecules provided.
# study.system: S1P1 (Homo sapiens, UniProt P21453)
# Construct: host or cells: HUVEC (pooled donors)
# experiment.summary: Label-free impedance assay in HUVEC, first stimulation (early and late BNCI response)
# Type: cell-based
# settings: BNCI peak response at 8–10 min, first stimulation, geometric mean, read-out: Early phase EC50 [95% CI]
# Protocol: HUVECs from pooled donors (PromoCell GmbH, Heidelberg, Germany, C‐12203) were seeded at 10 000 cells per well, in complete medium (C2210, C39210) containing 2% fetal bovine serum (FBS), in 96‐well collagen‐I coated E‐plates. […] Electrical impedance was measured continuously with RTCA‐MP station (xCELLigence RTCA, ACEA‐Biosciences, San Diego, CA, USA), according to the manufacturer’s protocol, and expressed as baseline normalized cell index (BNCI) using RTCA2.0 software. […]
Give bare numbers, in nM.

Here is how some molecules turned out for EC50.
* Cc1cc(-c2nc3cnc(Oc4cccc(Cl)c4)nc3o2)cc(C)c1OCC(=O)O | 26.1
* CCc1cc(/C(C)=N/OCc2ccc(C3CCCCC3)c(C(F)(F)F)c2)ccc1CN1CC(C(=O)O)C1 | 0.977

// switching to the query molecule
stdin: S1P1 (Homo sapiens, UniProt P21453) / EC50 / CCC/N=C1\S/C(=C\c2ccc(OC[C@H](O)CO)c(Cl)c2)C(=O)N1c1ccccc1C : value?
stdout: 2.41
